# TARGET OR SYSTEM: T1, human ferroportin (SLC40A1) fused in frame with GFP, stably expressed on HEK293 cells (human, UniProt Q9NP59 1-571)
# T1 sequence (looked up): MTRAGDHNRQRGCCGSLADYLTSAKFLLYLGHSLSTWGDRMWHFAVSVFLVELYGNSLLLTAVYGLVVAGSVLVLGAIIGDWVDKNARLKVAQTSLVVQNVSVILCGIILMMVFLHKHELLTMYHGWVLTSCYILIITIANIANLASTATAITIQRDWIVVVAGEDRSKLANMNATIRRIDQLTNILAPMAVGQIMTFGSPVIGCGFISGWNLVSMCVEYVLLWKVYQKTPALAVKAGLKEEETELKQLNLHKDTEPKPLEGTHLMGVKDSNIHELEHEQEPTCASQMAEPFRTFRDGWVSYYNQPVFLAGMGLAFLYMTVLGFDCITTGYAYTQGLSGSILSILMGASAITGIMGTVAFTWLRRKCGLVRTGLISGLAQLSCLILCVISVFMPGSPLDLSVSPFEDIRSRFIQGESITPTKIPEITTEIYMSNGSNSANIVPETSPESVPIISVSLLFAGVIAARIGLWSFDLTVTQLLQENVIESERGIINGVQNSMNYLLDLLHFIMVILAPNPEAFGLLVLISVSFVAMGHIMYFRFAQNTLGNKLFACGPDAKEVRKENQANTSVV
# ASSAY OVERVIEW: cell-based or functional assay
* marks the point of attachment. Isovaleryl = CC(C)CC(=O)*
REPORTED ENDPOINT: EC50 (nM) (n > 3), ferroportin internalization/degradation assay
Your answer is read as nM, so omit the unit and give the number.

// solved cases for EC50 (nM) (n > 3), ferroportin internalization/degradation assay follow
[[record]]
binder = "DTHFPCIKF (N-terminal isobutyric acid on each subunit; the two subunits are joined at their C-termini through a [Lys] linker, which is followed by K(iso-Glu-Palm)-NH2) [(isobutyric acid-DTHFPCIKF)2[Lys]K(iso-Glu-Palm)-NH2]"
experimental_result = 24

[[record]]
binder = "DTHFPCIKF (N-terminal isovaleric acid on each subunit; the two subunits are joined at their C-termini through a [Lys]-NH2 linker) [(Isovaleric acid-DTHFPCIKF)2[Lys]-NH2]"
experimental_result = 30

[[record]]
binder = "DTHFPCIKF (N-terminal isovaleric acid on each subunit; the two subunits are joined at their C-termini through a [Lys] linker, which is followed by K(iso-Glu-Palm)-NH2) [(isovaleric acid-DTHFPCIKF)2[Lys]K(iso-Glu-Palm)-NH2]"
experimental_result = 14


The binder listed as Isovaleryl-DTHFPCIRFK-{K(γGlu-Palm)-NH2} (also: dimer: two subunits joined at C-termini through a Lys linker) [(Isovaleric acid-DTHFPCIRF)2[Lys]-K(iso-Glu-Palm)-NH2] shows EC50 (nM) (n > 3), ferroportin internalization/degradation assay equal to 4

Reference source: patent US20170313754A1
